// provenance: ChEMBL document CHEMBL1145854

System: V79
assay-overview: Cytotoxicity activity against V79 cells
Format: functional, cell-based
test-settings: Cricetulus griseus
pIC50: −log10 of the molar value.
If the reported pIC50 equals or exceeds 4, assign 1 (yes). If not, assign 0 (no).

Qu. Evaluate CC1N[C@@H](C(=O)O)C[Se]1 (stereo not given in full) : pIC50 at minimum 4?
Ans. 0 (no)

Qu. Evaluate `C[Se]C[C@H](N)C(=O)O` : pIC50 at minimum 4?
Ans. 0 (no)

Qu. Evaluate `O=C1N[C@H](C(=O)O)C[Se]1` : pIC50 at minimum 4?
Ans. 0 (no)

---

Tested on: V79
assay-overview: Cytotoxicity activity against V79 cells
Assay type: functional, cell-based
test-settings: Cricetulus griseus
Exam item: assign 1 to entries whose IC50 is below 300 µM and 0 to entries at or above 300 µM. Note that a value of exactly 300 µM receives 0.

[[record]]
compound = "CC1N[C@H](C(=O)O)C[Se]1 (some centres not stated)"
category = 1

[[record]]
compound = "C[Se]CC[C@H](N)C(=O)O"
category = 1

[[record]]
compound = "O=C1N[C@@H](C(=O)O)C[Se]1"
category = 0

[[record]]
compound = "N#C[Se]Cc1ccc(C[Se]C#N)cc1"
category = 1

[[record]]
compound = "O=C(O)[C@@H]1C[Se]CN1"
category = 0


Could you now consider this next compound?
Qu. Item O=[Se](O)O [SODIUM SELENITE] : IC50 beneath 300 µM, strictly?
Ans. 1
